- Tested on: LNCAP
- METHOD: Biomarker study proliferation (CellTiter-Glo)
- Format: cell-based
- DETAILS: Homo sapiens, LNCaP, 168 h, read-out: Anti-proliferation effect IC50
READOUT NAME: pIC50
One number for each entry, as −log10 of the molar value.

**Query** Dear colleague, please send me the reported pIC50 for "Cc1cc(NC2CCN(C(=O)O[C@H]3CCN(C(=O)/C=C/CN(C)C)C3)CC2)n2ncc(C(C)C)c2n1" when you can.
**Result** 7.23

* * *

- Tested on: DU145
- METHOD: Biomarker study proliferation (CellTiter-Glo)
- Format: cell-based
- DETAILS: Homo sapiens, DU-145, 168 h, read-out: Anti-proliferation effect IC50
READOUT NAME: pIC50
Numbers only, as −log10 of the molar value.

**Query** Dear colleague, please send me the reported pIC50 for "Cc1cc(NC2CCN(C(=O)O[C@H]3CCN(C(=O)/C=C/CN(C)C)C3)CC2)n2ncc(C(C)C)c2n1" when you can.
**Result** 7.44

* * *

- TARGET SYSTEM: CDK2/CycE1 (Homo sapiens)
- METHOD: ProQinase WT Profiler radiometric protein kinase assay
- DETAILS: non standard IC50 from 4 concentrations, kinase 1.5 nM, ATP 1 μM
- Procedure: Kinase inhibition profile of compound is determined by measuring residual activity values at four concentrations in singlicate in 320 wild-type protein kinase assays. The compounds are tested at 20 μM, 2 μM, 0.2 μM and 0.02 μM in singlicate. […] For each kinase, the median value of the cpm of three wells is defined as “low control” (n=3). This value reflects unspecific binding of radioactivity to the plate in the absence of a protein kinase but in the presence of the substrate. […]
READOUT NAME: IC50

**Query** Dear colleague, please send me the reported IC50 for "Cc1cc(NC2CCN(C(=O)O[C@H]3CCN(C(=O)/C=C/CN(C)C)C3)CC2)n2ncc(C(C)C)c2n1" when you can.
**Result** ≥ 20 µM

* * *

- Tested on: phospho-carboxyl terminal domain (Ser5) in HCT116 cells
- METHOD: p-CTD (S5) cell based Acumen assay
- DETAILS: Homo sapiens, HCT-116, 4 hours, read-out: Relative IC50 for pCTD Ser5
- Procedure: HCT116 cells (ATCC CCL-247) are cultured in McCoy's 5A Medium Modified media supplemented with 10% FBS, 1% NaPyr and 1% Pen/Strep and plated (prior to becoming 70% confluent) in 96-well flat-bottom plates at a density of 5,000 cells per well in 100 μL volume. The cells are incubated overnight in a cell culture incubator (5% CO2, 95% Relative Humidity (RH) and 37° C.) and allowed to attach to the plate. The following morning, the cells are dosed with compounds. […]
For each of the molecules below, state its pIC50.
One number for each entry, as −log10 of the molar value.

>  <MOLECULE>
Cc1cc(NC2CCN(C(=O)O[C@H]3CCN(C(=O)/C=C/CN(C)C)C3)CC2)n2ncc(C(C)C)c2n1 [Example 1]

>  <TARGET SYSTEM>
phospho-carboxyl terminal domain (Ser5) in HCT116 cells

>  <READOUT NAME>
pIC50

>  <EXPERIMENTAL RESULT>
6.85

$$$$

In the following, a different molecule is considered.
**Query** Dear colleague, please send me the reported pIC50 for Cc1cc(NC2CCN(C(=O)O[C@@H]3CCN(C(=O)/C=C/CN(C)C)C3)CC2)n2ncc(C(C)C)c2n1 [Example 3] when you can.
**Result** 6.70

* * *

- Tested on: KYSE270
- METHOD: Biomarker study proliferation (CellTiter-Glo)
- Assay type: cell-based
- DETAILS: Homo sapiens, KYSE-270, 168 h, read-out: Anti-proliferation effect IC50
READOUT NAME: IC50

**Query** Dear colleague, please send me the reported IC50 for "Cc1cc(NC2CCN(C(=O)O[C@H]3CCN(C(=O)/C=C/CN(C)C)C3)CC2)n2ncc(C(C)C)c2n1" when you can.
**Result** > 10 µM

* * *

- TARGET SYSTEM: CDK16/CycY (Homo sapiens, UniProt Q00536)
- Sequence (Q00536 whole entry): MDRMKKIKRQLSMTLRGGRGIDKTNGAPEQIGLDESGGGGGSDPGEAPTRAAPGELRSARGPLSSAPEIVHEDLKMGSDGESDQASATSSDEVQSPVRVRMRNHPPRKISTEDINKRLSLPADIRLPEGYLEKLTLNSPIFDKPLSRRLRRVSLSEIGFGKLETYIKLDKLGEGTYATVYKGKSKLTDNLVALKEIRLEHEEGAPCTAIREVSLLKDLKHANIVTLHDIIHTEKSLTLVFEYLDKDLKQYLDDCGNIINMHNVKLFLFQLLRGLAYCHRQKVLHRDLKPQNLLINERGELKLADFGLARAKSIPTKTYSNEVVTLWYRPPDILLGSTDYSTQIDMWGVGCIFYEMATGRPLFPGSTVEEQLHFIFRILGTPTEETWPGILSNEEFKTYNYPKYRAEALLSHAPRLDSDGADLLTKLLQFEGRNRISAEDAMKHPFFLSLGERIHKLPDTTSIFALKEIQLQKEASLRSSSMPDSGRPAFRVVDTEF
- Sequence (Q8ND76 whole entry partner): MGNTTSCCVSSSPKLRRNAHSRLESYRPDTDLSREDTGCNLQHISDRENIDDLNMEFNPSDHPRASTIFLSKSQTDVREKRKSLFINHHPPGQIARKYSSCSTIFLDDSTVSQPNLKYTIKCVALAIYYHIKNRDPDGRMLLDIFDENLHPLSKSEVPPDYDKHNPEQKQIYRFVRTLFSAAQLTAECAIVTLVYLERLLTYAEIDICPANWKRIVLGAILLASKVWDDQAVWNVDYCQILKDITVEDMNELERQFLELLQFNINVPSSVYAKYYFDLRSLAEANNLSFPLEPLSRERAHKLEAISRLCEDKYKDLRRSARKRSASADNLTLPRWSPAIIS
- METHOD: ProQinase WT Profiler radiometric protein kinase assay
- DETAILS: non standard IC50 from 4 concentrations, kinase 3.2 nM, ATP 0.3 μM
READOUT NAME: pIC50
One number for each entry, as −log10 of the molar value.

**Query** For CDK16/CycY (Homo sapiens, UniProt Q00536), give the measured pIC50 of the entry "Cc1cc(NC2CCN(C(=O)O[C@H]3CCN(C(=O)/C=C/CN(C)C)C3)CC2)n2ncc(C(C)C)c2n1"
**Result** 5.04
